# ASSAY_SUMMARY: Solubility measurement in pH buffers
# Format: physicochemical
# EXPERIMENTAL_CONDITIONS: aqueous buffer, thermodynamic from solid; pH 5.0 buffer; 37° C.; 24 hrs; read-out: Solubility
MEASUREMENT_LABEL: solubility at 24 h

What the record says about CC(=O)c1ccc2c(c1)[C@@H]1C=CC[C@@H]1[C@H](c1cc3c(cc1Br)OCO3)N2 [SRR G-1 Form A] : solubility at 24 h is < 0.72 µg/mL

---

// inhibition at 10 µM lookup, one value per entry
# EXPERIMENTAL_SYSTEM: OATP1B1 (Homo sapiens, UniProt Q9Y6L6)
# Sequence (Q9Y6L6 1-691): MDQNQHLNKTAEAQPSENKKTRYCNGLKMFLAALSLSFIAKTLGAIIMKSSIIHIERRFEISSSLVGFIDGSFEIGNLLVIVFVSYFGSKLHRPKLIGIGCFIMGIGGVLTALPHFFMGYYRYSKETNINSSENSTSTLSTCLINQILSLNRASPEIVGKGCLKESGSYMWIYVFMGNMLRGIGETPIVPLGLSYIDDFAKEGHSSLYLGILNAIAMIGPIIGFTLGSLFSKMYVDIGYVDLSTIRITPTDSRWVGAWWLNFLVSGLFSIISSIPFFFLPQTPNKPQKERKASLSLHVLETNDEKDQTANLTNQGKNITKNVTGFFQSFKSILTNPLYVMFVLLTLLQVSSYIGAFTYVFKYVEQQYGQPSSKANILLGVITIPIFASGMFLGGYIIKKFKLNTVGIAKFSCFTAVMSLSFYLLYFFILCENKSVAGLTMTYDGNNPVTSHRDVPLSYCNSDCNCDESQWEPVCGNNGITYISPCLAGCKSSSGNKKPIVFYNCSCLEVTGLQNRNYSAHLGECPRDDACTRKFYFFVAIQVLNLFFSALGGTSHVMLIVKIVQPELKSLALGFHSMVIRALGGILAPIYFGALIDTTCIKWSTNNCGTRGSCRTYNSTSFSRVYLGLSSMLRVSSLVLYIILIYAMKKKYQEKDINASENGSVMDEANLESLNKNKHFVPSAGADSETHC
# ASSAY_SUMMARY: Drug transporter fluorometric inhibition, OATP1B1
# Type: in vitro ADME
The reply should contain only the number, in %.

CC(=O)c1ccc2c(c1)[C@@H]1C=CC[C@@H]1[C@H](c1cc3c(cc1Br)OCO3)N2 (single isomer, unassigned) :: 82.5

Now examine the next entry.
What the record says about CC(=O)c1ccc2c(c1)[C@H]1C=CC[C@H]1[C@@H](c1cc3c(cc1Br)OCO3)N2 : inhibition at 10 µM is 91.2

---

# ASSAY_SUMMARY: Kinetic solubility measurement in bio-relevant media
# Format: physicochemical
# EXPERIMENTAL_CONDITIONS: simulated gastric fluid, thermodynamic from solid; SGF (pH 1.8); 37° C.; 24 h
MEASUREMENT_LABEL: solubility at 24 h (µg/mL)
The reply should contain only the number, in µg/mL.

What the record says about CC(=O)c1ccc2c(c1)[C@@H]1C=CC[C@@H]1[C@H](c1cc3c(cc1Br)OCO3)N2 [SRR G-1 Form A] : solubility at 24 h is 5.7

---

# ASSAY_SUMMARY: Approximate solubility of SRR G-1 Form A in solvents
# Assay type: physicochemical
# EXPERIMENTAL_CONDITIONS: organic solvent or mixture, toluene
MEASUREMENT_LABEL: solubility (mg/mL)
The reply should contain only the number, in mg/mL.

What the record says about CC(=O)c1ccc2c(c1)[C@@H]1C=CC[C@@H]1[C@H](c1cc3c(cc1Br)OCO3)N2 [SRR G-1 Form A] : solubility is 40

---

# ASSAY_SUMMARY: Solubility measurement in pH buffers
# Assay type: physicochemical
# EXPERIMENTAL_CONDITIONS: aqueous buffer, thermodynamic from solid; pH 6.0 buffer; 37° C.; 24 hrs; read-out: Solubility
MEASUREMENT_LABEL: solubility at 24 h

What the record says about CC(=O)c1ccc2c(c1)[C@@H]1C=CC[C@@H]1[C@H](c1cc3c(cc1Br)OCO3)N2 [SRR G-1 Form A] : solubility at 24 h is < 0.72 µg/mL

---

# ASSAY_SUMMARY: Kinetic solubility measurement in bio-relevant media
# Assay type: physicochemical
# EXPERIMENTAL_CONDITIONS: thermodynamic from solid; FeSSIF (pH 5.0); 37° C.; 2 h
MEASUREMENT_LABEL: solubility at 2 h (µg/mL)
The reply should contain only the number, in µg/mL.

What the record says about CC(=O)c1ccc2c(c1)[C@@H]1C=CC[C@@H]1[C@H](c1cc3c(cc1Br)OCO3)N2 [SRR G-1 Form A] : solubility at 2 h is 37

---

# ASSAY_SUMMARY: Approximate solubility of SRR G-1 Form A in solvents
# Type: physicochemical
# EXPERIMENTAL_CONDITIONS: oil or lipid, sesame oil
MEASUREMENT_LABEL: solubility (µg/mL)
The reply should contain only the number, in µg/mL.

What the record says about CC(=O)c1ccc2c(c1)[C@@H]1C=CC[C@@H]1[C@H](c1cc3c(cc1Br)OCO3)N2 [SRR G-1 Form A] : solubility is 2000

---

# ASSAY_SUMMARY: Kinetic solubility measurement in bio-relevant media
# Format: physicochemical
# EXPERIMENTAL_CONDITIONS: thermodynamic from solid; FaSSIF (pH 6.5); 37° C.; 1 h
MEASUREMENT_LABEL: solubility at 1 h

What the record says about CC(=O)c1ccc2c(c1)[C@@H]1C=CC[C@@H]1[C@H](c1cc3c(cc1Br)OCO3)N2 [SRR G-1 Form A] : solubility at 1 h is 7.1 µg/mL

---

# EXPERIMENTAL_SYSTEM: HTR2B (Homo sapiens, UniProt P41595)
# Sequence (P41595 whole entry): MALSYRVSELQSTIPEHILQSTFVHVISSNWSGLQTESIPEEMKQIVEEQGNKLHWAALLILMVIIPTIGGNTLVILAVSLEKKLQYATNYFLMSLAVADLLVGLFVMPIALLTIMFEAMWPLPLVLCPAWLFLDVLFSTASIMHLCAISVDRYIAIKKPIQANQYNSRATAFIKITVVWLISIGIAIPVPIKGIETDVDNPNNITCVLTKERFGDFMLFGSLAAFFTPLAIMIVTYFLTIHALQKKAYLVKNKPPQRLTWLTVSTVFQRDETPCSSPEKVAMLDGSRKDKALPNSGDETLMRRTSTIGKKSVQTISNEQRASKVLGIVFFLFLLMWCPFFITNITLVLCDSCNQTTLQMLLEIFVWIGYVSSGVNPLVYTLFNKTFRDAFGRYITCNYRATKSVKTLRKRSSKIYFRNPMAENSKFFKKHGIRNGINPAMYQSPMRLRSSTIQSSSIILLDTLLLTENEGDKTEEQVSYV
# ASSAY_SUMMARY: Off target selectivity assay, HTR2B
# EXPERIMENTAL_CONDITIONS: dose response, concentrations up to 10 μM; read-out: IC50 or EC50 on HTR2B
MEASUREMENT_LABEL: pIC50
Hey, just a heads up that pIC50 is the negative log base 10 of the concentration in molar.

What the record says about CC(=O)c1ccc2c(c1)[C@@H]1C=CC[C@@H]1[C@H](c1cc3c(cc1Br)OCO3)N2 (single isomer, unassigned) [SRR G-1] : pIC50 is 5.09

---

# ASSAY_SUMMARY: LogD7.4 by shake-flask method (pH 7.4 phosphate buffer / n-octanol)
# Assay type: physicochemical
# EXPERIMENTAL_CONDITIONS: n-octanol / pH 7.4 phosphate buffer, pH 7.4; LogP = LogD(pH) + Log [1 + 10^(pKa −pH)]
MEASUREMENT_LABEL: logP

What the record says about CC(=O)c1ccc2c(c1)[C@@H]1C=CC[C@@H]1[C@H](c1cc3c(cc1Br)OCO3)N2 (single isomer, unassigned) [SRR G-1] : logP is > 3.22

---

# ASSAY_SUMMARY: Kinetic solubility measurement in bio-relevant media
# Assay type: physicochemical
# EXPERIMENTAL_CONDITIONS: thermodynamic from solid; FeSSIF (pH 5.0); 37° C.; 24 h
MEASUREMENT_LABEL: solubility at 24 h (µg/mL)
The reply should contain only the number, in µg/mL.

What the record says about CC(=O)c1ccc2c(c1)[C@@H]1C=CC[C@@H]1[C@H](c1cc3c(cc1Br)OCO3)N2 [SRR G-1 Form A] : solubility at 24 h is 37

---

# ASSAY_SUMMARY: Plasma concentration of SRR G-1 in rats after oral dosing (LC-MS/MS)
# Assay type: in vivo
# EXPERIMENTAL_CONDITIONS: male, rat, plasma, po, 10 mg/kg, time 8.00 h, individual animals (R1-R9), read-out: Plasma Conc.
MEASUREMENT_LABEL: concentration at 8 h (ng/mL)
The reply should contain only the number, in ng/mL.

What the record says about CC(=O)c1ccc2c(c1)[C@@H]1C=CC[C@@H]1[C@H](c1cc3c(cc1Br)OCO3)N2 (single isomer, unassigned) : concentration at 8 h is 1.72

---

# EXPERIMENTAL_SYSTEM: OATP1B3 (Homo sapiens)
# Sequence (Q9NPD5 whole entry, species assumed): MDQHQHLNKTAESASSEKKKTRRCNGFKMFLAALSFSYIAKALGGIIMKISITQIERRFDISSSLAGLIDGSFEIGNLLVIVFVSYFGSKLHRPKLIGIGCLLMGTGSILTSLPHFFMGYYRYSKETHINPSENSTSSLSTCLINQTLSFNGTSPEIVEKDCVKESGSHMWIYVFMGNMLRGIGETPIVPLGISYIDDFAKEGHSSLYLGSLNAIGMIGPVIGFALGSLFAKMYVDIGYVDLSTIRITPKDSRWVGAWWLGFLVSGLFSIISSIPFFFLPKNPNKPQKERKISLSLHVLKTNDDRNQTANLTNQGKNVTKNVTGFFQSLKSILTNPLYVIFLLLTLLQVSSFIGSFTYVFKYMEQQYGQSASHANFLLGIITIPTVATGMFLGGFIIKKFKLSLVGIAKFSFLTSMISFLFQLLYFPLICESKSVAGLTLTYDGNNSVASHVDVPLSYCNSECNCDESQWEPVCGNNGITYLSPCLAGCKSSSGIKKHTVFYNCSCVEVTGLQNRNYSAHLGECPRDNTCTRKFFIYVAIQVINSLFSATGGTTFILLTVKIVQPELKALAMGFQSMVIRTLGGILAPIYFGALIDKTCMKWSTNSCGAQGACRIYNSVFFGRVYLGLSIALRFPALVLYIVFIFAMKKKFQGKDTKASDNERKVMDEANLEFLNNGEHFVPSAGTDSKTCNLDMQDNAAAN
# ASSAY_SUMMARY: Drug transporter fluorometric inhibition, OATP1B3
# Type: in vitro ADME
MEASUREMENT_LABEL: inhibition at 10 µM (%)
The reply should contain only the number, in %.

What the record says about CC(=O)c1ccc2c(c1)[C@H]1C=CC[C@H]1[C@@H](c1cc3c(cc1Br)OCO3)N2 : inhibition at 10 µM is 74.3

---

# ASSAY_SUMMARY: Solubility measurement in pH buffers
# Type: physicochemical
# EXPERIMENTAL_CONDITIONS: aqueous buffer, thermodynamic from solid; pH 3.0 buffer; 37° C.; 24 hrs; read-out: Solubility
MEASUREMENT_LABEL: solubility at 24 h

What the record says about CC(=O)c1ccc2c(c1)[C@@H]1C=CC[C@@H]1[C@H](c1cc3c(cc1Br)OCO3)N2 [SRR G-1 Form A] : solubility at 24 h is < 0.72 µg/mL
